Data credit: patent US20100081679A1

Assay: logP determination via retention times, calibrated with unbranched alkan-2-ones
Assay type: physicochemical
Details: reversed-phase C18 HPLC column; method *: HPLC reversed-phase C 18, 40° C., 0.1% aqueous formic acid and acetonitrile, linear gradient 10% to 95% acetonitrile; read-out: logP
measurement-type: chromatographic logP
Give the figure by itself; no unit, no explanation.

Bench note: what chromatographic logP did Clc1cnc(Nc2ccccc2)nc1NC1CC1 [Example 2] show?
1.61

###

Test: logP determination via retention times, calibrated with unbranched alkan-2-ones
Type: physicochemical
Conditions: method *: HPLC reversed-phase C 18, temperature 40° C.; mobile phase 0.1% aqueous formic acid and acetonitrile; linear gradient 10% to 95% acetonitrile
Catalogue of logP values

In the examples that follow, each entry is paired with its recorded logP.
| molecule | logP |
| --- | --- |
| O=C(NC1CC1)c1cccc(Nc2ncc(Cl)c(NC3CC3)n2)c1 | 1.39* |
| N#Cc1ccc(Nc2ncc(C(F)(F)F)c(NC3CC3)n2)cc1 | 2.99* |
| COc1cccc(Nc2ncc(F)c(NC3CC3)n2)c1 | 1.51* |
| O=S(=O)(c1cccc(Nc2ncc(C(F)(F)F)c(NC3CC3)n2)c1)N1CCCCC1 | 2.77* |
| COC(c1cccc(Nc2ncc(C(F)(F)F)c(NC3CC3)n2)c1)C(F)(F)F (stereo not drawn) | 3.74* |
| CC(C)(CF)C(=O)Nc1cccc(Nc2ncc(F)c(NC3CC3)n2)c1 | 1.55* |
| COc1cccc(Nc2ncc(C(F)(F)F)c(NC3CC3)n2)c1 | 2.73* |
| CC(=O)c1cccc(Nc2ncc(C#N)c(NC3CC3)n2)c1 | 2.23* |

Could you now consider this next molecule?
Bench note: what logP did CS(=O)(=O)Cc1cccc(Nc2ncc(Cl)c(NCC3CC3)n2)c1 show?
1.38*

###

Test: logP determination via retention times, calibrated with unbranched alkan-2-ones
Assay type: physicochemical
Details: method **: HPLC, reversed-phase C 18, 43° C., mobile phase 0.1% aqueous phosphoric acid and acetonitrile, linear gradient from 10% to 95% acetonitrile
measurement-type: logP

In the examples that follow, each entry is paired with its recorded logP.
| compound | logP |
| --- | --- |
| N#Cc1cc(Nc2ncc(Cl)c(NC3CC3)n2)cc(C(F)(F)F)c1 [compound 1017] | 3.69** |
| Clc1cnc(Nc2ccccc2)nc1NC1CC1c1ccccc1 (stereo not shown) [compound 1014] | 2.77** |
| CC1(C)CC1Nc1nc(Nc2cccc(N3CCOC3=O)c2)ncc1Cl (stereo not shown) [compound 1035] | 1.93** |
| CC(=O)NS(=O)(=O)c1ccc(Nc2ncc(Cl)c(NC3CC3)n2)cc1 [compound 1021] | 1.54** |
| CN(C)C(=O)c1ccc(Nc2ncc(Cl)c(NC3CC3(C)C)n2)cc1 (stereo not shown) [compound 1030] | 1.86** |

Bench note: what logP did Clc1cnc(Nc2cccc(CBr)c2)nc1NC1CC1 [compound 1023] show?
2.31**

Bench note: what logP did COCc1cccc(Nc2ncc(Cl)c(N(Cc3ccc(OC)cc3)C3CC3)n2)c1 [compound 1044] show?
4.07**

Bench note: what logP did COCc1cccc(Nc2ncc(Cl)c(NC3CC3(C)C)n2)c1 (stereo not shown) [compound 1028] show?
2.37**

###

Assay: logP determination via retention times, calibrated with unbranched alkan-2-ones
Format: physicochemical
Conditions: HPLC on reversed-phase C18, method *: 40° C.; mobile phase 0.1% aqueous formic acid and acetonitrile; linear gradient 10% to 95% acetonitrile
Marks after values point to notes of the source that are not given here.
Catalogue of logP values

| smiles-record | logP |
| --- | --- |
| CCOc1ccc(Nc2ncc(Br)c(NC3CC3)n2)cc1 | 1.87* |
| O=C1CCCN1c1cccc(Nc2ncc(Cl)c(NC3(c4ccccc4Cl)CC3)n2)c1 | 2.95* |
| COc1ccc(Nc2ncc(Cl)c(NC3CC3)n2)cc1 | 1.47* |
| FC(F)(F)Oc1cccc(Nc2ncc(Br)c(NC3CC3)n2)c1 | 3.68* |
| CO/N=C/c1ccc(Nc2ncc(Br)c(NC3CC3)n2)cc1 | 2.55* |

Bench note: what logP did Clc1cccc(Nc2ncc(Br)c(NC3CC3)n2)c1 show?
2.77*

Bench note: what logP did Cc1cccc(C)c1Nc1ncc(Cl)c(NC2CC2)n1 show?
1.59*

Bench note: what logP did FC1(F)Oc2ccc(Nc3ncc(Cl)c(NC4CC4)n3)cc2OC1(F)F show?
3.76*

Bench note: what logP did CN(C)S(=O)(=O)c1ccc(Nc2ncc(Br)c(NC3CC3)n2)cc1 show?
2.33*

Bench note: what logP did COc1cccc(Nc2ncc(Cl)c(NC3CC3)n2)c1 show?
1.8*

###

Test: logP determination via retention times, calibrated with unbranched alkan-2-ones
Assay type: physicochemical
Conditions: method *: HPLC reversed-phase C18, 40° C., 0.1% aqueous formic acid and acetonitrile, linear gradient 10% to 95% acetonitrile
measurement-type: logP

In the examples that follow, each entry is paired with its recorded logP.
| molecule | logP |
| --- | --- |
| CCN(C(C)=O)c1ccc(Nc2ncc(Br)c(NC3CC3)n2)cc1 | 1.73* |
| O=S(=O)(Cc1cccc(Nc2ncc(Cl)c(NC3CC3)n2)c1)Nc1ccccc1 | 2.15* |

Bench note: what logP did CN(C)C(=O)c1ccc(Nc2ncc(Br)c(NCC3CC3)n2)cc1 show?
1.66*;

Bench note: what logP did Clc1cnc(Nc2ccccc2)nc1NC1CC1 [Example 76] show?
1.84*

Bench note: what logP did Brc1cnc(Nc2ccc3c(c2)OCO3)nc1NCC1CC1 show?
1.83*

Bench note: what logP did CC(C)(C)C(=O)Cc1ccc(Nc2ncc(Cl)c(NC3CC3)n2)cc1 show?
2.3*

Bench note: what logP did COC(=O)c1ccc(Nc2ncc(Cl)c(NC3CC3)n2)cc1 show?
2.23*

Bench note: what logP did OCc1cccc(Nc2ncc(Cl)c(NC3CC3)n2)c1 show?
1.22*

Bench note: what logP did CCOC(=O)Nc1cccc(Nc2ncc(Br)c(NCC3CC3)n2)c1 show?
1.99*

###

Catalogue of logP values
Experiment: logP determination via retention times, calibrated with unbranched alkan-2-ones
Type: physicochemical
Conditions: method *: HPLC reversed-phase C 18, temperature 40° C.; mobile phase 0.1% aqueous formic acid and acetonitrile; linear gradient 10% to 95% acetonitrile

In the examples that follow, each entry is paired with its recorded logP.
| molecule | logP |
| --- | --- |
| CC(=O)Nc1ccc(Nc2ncc(C(F)(F)F)c(NC3CC3)n2)cc1Cl [compound 648] | 2.18*; |
| Fc1cccc(Nc2ncc(Cl)c(NC3CC3)n2)c1 [compound 620] | 3.15* |
| COc1cccc(Nc2ncc(C#N)c(NC3CC3)n2)c1 [compound 604] | 2.48* |
| COc1ccc(Nc2ncc(C(F)(F)F)c(NC3CC3)n2)cc1 [compound 641] | 2.21*; |
| CS(=O)(=O)c1ccc(Nc2ncc(C#N)c(NC3CC3)n2)cc1 [compound 605] | 1.92* |
| CNC(=O)c1cccc(Nc2ncc(C(F)(F)F)c(NC3CC3)n2)c1 [compound 652] | 1.78*; |
| CC(=O)c1cccc(Nc2ncc(C(F)(F)F)c(NC3CC3)n2)c1 [compound 657] | 2.57*; |
| O=C1OCCN1c1ccc(Nc2ncc(F)c(NC3CC3)n2)cc1 [compound 592] | 1.23* |

Could you now consider this next molecule?
Bench note: what logP did CNC(=O)c1cccc(Nc2ncc(C#N)c(NC3CC3)n2)c1 [compound 608] show?
1.64*

###

Catalogue of logP values
Assay: logP determination via retention times, calibrated with unbranched alkan-2-ones
Type: physicochemical
Settings: HPLC on reversed-phase C18, method *: 40° C., 0.1% aqueous formic acid and acetonitrile, linear gradient 10% to 95% acetonitrile
Marks after values point to notes of the source that are not given here.

In the examples that follow, each entry is paired with its recorded logP.
| compound | readout-value |
| --- | --- |
| O=C(c1cccc(Nc2ncc(Cl)c(NC3CC3)n2)c1)N1CCCCC1 | 1.94* |
| COc1cc(Nc2ncc(C(F)(F)F)c(NC3CC3)n2)ccc1Cl | 3.59* |
| O=C1CCCN1c1cccc(Nc2ncc(C(F)F)c(NCC3CC3)n2)c1 | 1.48* |
| CCCOc1cccc(Nc2ncc(C(F)(F)F)c(NC3CC3)n2)c1 | 3.92* |
| O=C(c1ccc(Nc2ncc(C(F)(F)F)c(NC3CC3)n2)cc1)N1CCCCC1 | 2.86* |

Bench note: what logP did N#Cc1ccc(Nc2ncc(Br)c(NC3CC3)n2)cc1 show?
2.43*

Bench note: what logP did COCc1cccc(Nc2ncc(Cl)c(NCC3CC3)n2)c1 show?
1.82*

Bench note: what logP did CCCSc1cccc(Nc2ncc(Br)c(NC3CC3)n2)c1 show?
3.49*

Bench note: what logP did O=C(N(c1ccc(Nc2ncc(Cl)c(NC3CC3)n2)cc1)C1CC1)C(F)(F)F show?
2.54*

Bench note: what logP did Brc1cnc(Nc2ccc(-c3cscn3)cc2)nc1NC1CC1 show?
1.99*

Bench note: what logP did FC(F)(F)Oc1ccc(Nc2ncc(Cl)c(NCC3CC3)n2)cc1 show?
2.95*
